test system: human T cells; assay: Mixed Lymphocyte Reaction (MLR), IFNgamma release; type: cell-based; conditions: Homo sapiens, T-cell, T cells from different donors, read-out: EC50, release of INFgamma from human T cells
Listing of recorded EC50 by entry.

- molecule: "COc1nc(-c2cccc(-c3cccc(NC(=O)c4cn(C)c(=O)n(C)c4=O)c3C)c2Cl)ccc1CNC[C@@H]1CCC(=O)N1 [Compound 2.001]"
  EC50: "< 100 nM"

Here is another molecule to look at.
Lookup: Given the molecule COc1nc(-c2cccc(-c3cccc(NC(=O)c4cn(C)c(=O)n(C)c4=O)c3Cl)c2Cl)ccc1CNC[C@@H]1CCC(=O)N1 [Compound 2.002] , what is its reported EC50?
Found: < 100 nM
